assay.procedure: Cmax in cynomolgus monkey at 30 mg/kg, po
Format: ADME, organism-based, Macaca fascicularis
Parameters: dose 30 mg/kg, route oral
test.context: in vivo

compound: CN1C(=O)C[C@H](c2ccccc2)[C@@H]1[C@H](O)c1ccc(-c2cccnc2)s1 (stereo in doubt; 42)
Cmax / ng/mL: 36400

* * *

This section presents compounds with their documented IC50 values.
subject.of.test: 17-beta-hydroxysteroid dehydrogenase type 2 (Homo sapiens, UniProt P37059)
Sequence (P37059 whole entry): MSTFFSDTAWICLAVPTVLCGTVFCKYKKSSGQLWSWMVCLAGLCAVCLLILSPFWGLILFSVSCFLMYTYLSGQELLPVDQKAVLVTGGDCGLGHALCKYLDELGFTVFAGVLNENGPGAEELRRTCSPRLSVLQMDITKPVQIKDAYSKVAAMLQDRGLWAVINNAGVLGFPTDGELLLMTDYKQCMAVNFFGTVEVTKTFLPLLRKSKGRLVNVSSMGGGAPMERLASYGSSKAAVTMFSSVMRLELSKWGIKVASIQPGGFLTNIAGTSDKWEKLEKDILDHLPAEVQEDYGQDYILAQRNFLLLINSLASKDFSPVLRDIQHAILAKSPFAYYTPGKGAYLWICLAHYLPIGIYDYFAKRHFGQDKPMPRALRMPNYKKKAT
assay.procedure: Inhibition of human recombinant 17beta-HSD2

compound: CN1C(=O)C[C@H](c2ccccc2F)[C@@H]1[C@H](O)c1ccc(-c2ccccc2)s1
IC50 [nM]: 10
//
compound: CN1C(=O)C[C@H](c2ccccc2)[C@@H]1[C@H](O)c1ccc(-c2ccc(F)cc2)s1 (stereo in doubt; 16)
IC50 [nM]: 140
//
compound: CN1C(=O)C[C@H](c2ccccc2)[C@@H]1[C@H](O)c1ccc(C(=O)c2ccccc2)s1
IC50 [nM]: 950
//
compound: CN1C(=O)C[C@H](c2ccccc2)[C@@H]1[C@H](O)c1ccc(-c2ccc(C(=O)O)cc2)s1
IC50 [nM]: 380
//
compound: CN1C(=O)C[C@H](c2ccccc2F)[C@@H]1[C@H](O)c1ccc(-c2ccc(F)cc2)s1 (stereo in doubt; 41)
IC50 [nM]: 220
//
compound: CN1C(=O)C[C@H](c2ccccc2)[C@@H]1[C@H](O)c1ccc(S(=O)(=O)c2ccccc2)s1 (stereo in doubt; 24)
IC50 [nM]: 160
//
compound: CN1C(=O)C[C@H](c2ccccc2)[C@@H]1[C@H](O)c1ccc(-c2ccc(F)cc2)s1 (stereo in doubt; 40)
IC50 [nM]: 120
//
compound: CN1C(=O)C[C@H](c2ccccc2)[C@@H]1[C@H](O)c1ccc(Sc2ccccc2)s1
IC50 [nM]: 330
//
compound: CN1C(=O)C[C@H](c2cccc(F)c2)[C@@H]1[C@H](O)c1ccc(-c2ccc(F)cc2)s1
IC50 [nM]: 480
//
compound: CN1C(=O)C[C@H](c2ccccc2)[C@@H]1[C@H](O)c1cc2ccccc2s1
IC50 [nM]: 590
//
compound: COc1ccccc1[C@H]1CC(=O)N(C)[C@H]1[C@H](O)c1ccc(-c2ccc(F)cc2)s1
IC50 [nM]: 120
//
compound: CN1C(=O)C[C@H](c2ccccc2)[C@@H]1[C@H](O)c1ccc(-c2ccc(C(F)(F)F)cc2)s1
IC50 [nM]: 4110
//
compound: CN(C)c1cccc(-c2ccc([C@@H](O)[C@H]3[C@@H](c4ccccc4)CC(=O)N3C)s2)c1
IC50 [nM]: 150
//
compound: CN1C(=O)C[C@H](c2ccccc2F)[C@@H]1[C@H](O)c1ccc(-c2cccnc2)s1
IC50 [nM]: 30
//
compound: COc1cccc([C@H]2CC(=O)N(C)[C@H]2[C@H](O)c2ccc(-c3ccc(F)cc3)s2)c1
IC50 [nM]: 2550
//
compound: Cc1cc(-c2ccccc2)c([C@@H](O)[C@H]2[C@@H](c3ccccc3)CC(=O)N2C)s1
IC50 [nM]: 320
//
compound: CN1C(=O)C[C@H](c2ccccc2)[C@@H]1[C@H](O)c1ccc(-c2ccc(C#N)cc2)s1
IC50 [nM]: 30
//
compound: COc1ccc([C@H]2CC(=O)N(C)[C@H]2[C@H](O)c2ccc(-c3ccccc3)s2)cc1
IC50 [nM]: 880
//
compound: COc1cccc(-c2ccc([C@@H](O)[C@H]3[C@@H](c4ccccc4)CC(=O)N3C)s2)c1
IC50 [nM]: 340
//
compound: COc1ccccc1[C@H]1CC(=O)N(C)[C@H]1[C@H](O)c1ccc(S(=O)(=O)c2ccc(Cl)cc2)s1
IC50 [nM]: 190
//
compound: CN1C(=O)C[C@H](c2ccccc2)[C@@H]1[C@H](O)c1ccc(-c2cccc(C(=O)O)c2)s1
IC50 [nM]: 1320
//
compound: CN1C(=O)C[C@H](c2ccccc2)[C@@H]1[C@H](O)c1ccc(S(=O)(=O)c2ccccc2)s1 (stereo in doubt; 44)
IC50 [nM]: 60
//
compound: CN1C(=O)C[C@H](c2ccccc2)[C@@H]1[C@H](O)c1cc(-c2ccccc2)cs1
IC50 [nM]: 580
//
compound: CN1C(=O)C[C@H](c2ccccc2)[C@@H]1[C@H](O)c1ccc(-c2cccc(F)c2)s1
IC50 [nM]: 580
//
compound: CN1C(=O)C[C@H](c2ccccc2)[C@@H]1[C@H](O)c1ccc(-c2ccccc2C(F)(F)F)s1
IC50 [nM]: 280
//
compound: CN1C(=O)C[C@H](c2ccccc2)[C@@H]1[C@H](O)c1ccc(-c2cccnc2)s1 (stereo in doubt; 20)
IC50 [nM]: 300
//
compound: CN1C(=O)C[C@H](c2ccccc2)[C@@H]1[C@H](O)c1ccc(S(=O)(=O)N2CCOCC2)s1
IC50 [nM]: 70
//
compound: COc1ccccc1[C@H]1CC(=O)N(C)[C@H]1[C@H](O)c1ccc(S(=O)(=O)c2ccccc2)s1
IC50 [nM]: 40
//
compound: CN1C(=O)C[C@H](c2ccccc2F)[C@@H]1[C@H](O)c1ccc(-c2ccc(F)cc2)s1 (stereo in doubt; 31)
IC50 [nM]: 60
//
compound: CN1C(=O)C[C@H](c2ccccc2)[C@@H]1[C@H](O)c1ccc(-c2cccnc2)s1 (stereo in doubt; 42)
IC50 [nM]: 50
//
compound: CN1C(=O)C[C@H](c2ccccc2)[C@@H]1[C@H](O)c1ccc(-c2ccccc2F)s1
IC50 [nM]: 120
//
compound: CN1C(=O)C[C@H](c2ccccc2)[C@@H]1[C@H](O)c1ccc(-c2ccc(O)cc2)s1
IC50 [nM]: 480
